System: AR42J tumor xenografts
Experiment: Biodistribution of 99mTc-labeled compounds in nude mice with AR42J tumor xenografts
Type: in vivo
Conditions: 99mTc-labeled compound, i.v., 90 minutes post-injection
*1 amine or outer side, *2 acyl side, *3 side chain or, on linkers, in order; H or OH if unused. Where a SMILES comes first, the peptide text is derived from it. Bridges are numbered along the chain shown (N, C = ends). Roman numbers before positions name the chains, in order. [ ]: non-standard residue; d: D form. ξ: configuration not given here. Phe(4-NH2) = Nc1ccc(C[C@H](N)C(=O)O)cc1; NMehCys = CN[C@@H](CCS)C(=O)O; Thr(3ξ) = CC(O)[C@H](N)C(=O)O; Dap = NC[C@H](N)C(=O)O; X1 = O=C(C[*:1])[*:2]
readoutType: TUMOR (%ID/g)
Quick reminder: number only, in %ID/g, skip the unit.

1) C[C@@H](O)[C@@H]1NC(=O)[C@H](CCCCN)NC(=O)[C@@H](Cc2c[nH]c3ccccc23)NC(=O)[C@H](Cc2ccc(O)cc2)NC(=O)[C@H](CCSCC(=O)NC[C@H](N)C(=O)N[C@@H](CO)C(=O)N[C@@H](CS)C(=O)N[C@H](CO)[C@@H](C)O)N(C)C(=O)[C@H](Cc2ccccc2)NC1=O    12.6
2) C[C@@H](O)[C@@H]1NC(=O)[C@H](CCCCN)NC(=O)[C@@H](Cc2c[nH]c3ccccc23)NC(=O)[C@H](Cc2ccc(O)cc2)NC(=O)[C@H](CCSCC(=O)NC[C@H](N)C(=O)N[C@@H](Cc2ccc(N)cc2)C(=O)N[C@@H](CS)C(=O)N[C@H](CO)[C@@H](C)O)N(C)C(=O)[C@H](Cc2ccccc2)NC1=O    31.8

# get_value(readout='TUMOR', item= C[C@@H](O)[C@@H]1NC(=O)[C@H](CCCCN)NC(=O)[C@@H](Cc2c[nH]c3ccccc23)NC(=O)[C@H](Cc2ccc(O)cc2)NC(=O)[C@H](CCSCC(=O)NC[C@H](N)C(=O)N[C@@H](CCCCN)C(=O)N[C@@H](CS)C(=O)N[C@H](CO)[C@@H](C)O)N(C)C(=O)[C@H](Cc2ccccc2)NC1=O )
10.2

# get_value(readout='TUMOR', item= C[C@@H](O)[C@@H]1NC(=O)[C@H](CCCCN)NC(=O)[C@@H](Cc2c[nH]c3ccccc23)NC(=O)[C@H](Cc2ccc(O)cc2)NC(=O)[C@H](CCSCC(=O)NC[C@H](N)C(=O)N[C@@H](CCCN)C(=O)N[C@@H](CS)C(=O)N[C@H](CO)[C@@H](C)O)N(C)C(=O)[C@H](Cc2ccccc2)NC1=O )
10.3

# get_value(readout='TUMOR', item= CC(O)[C@H](NC(=O)[C@H](CS)NC(=O)[C@H](Cc1ccc(N)cc1)NC(=O)[C@@H](N)CNC(=O)CSCC[C@H]1C(=O)N[C@@H](Cc2ccc(O)cc2)C(=O)N[C@H](Cc2c[nH]c3ccccc23)C(=O)N[C@@H](CCCCN)C(=O)N[C@@H](C(C)O)C(=O)N[C@@H](Cc2ccccc2)C(=O)N1C)C(=O)N[C@@H](CO)C(=O)O (stereo partly shown) (I: cyclo(F[NMehCys]Y[dW]K[Thr(3ξ)]) / II: H-[Dap][Phe(4-NH2)]C[Thr(3ξ)]S-OH; linker I:2-II:1 via X1) )
24.7
